- System: NCI-H226 lung
- assay details: NCI tumour cell line growth inhibition, 48 h
quantity kind: TGI

CCOc1ccc2nc(NC(NC(=O)c3cccnc3)(C(F)(F)F)C(F)(F)F)sc2c1    > 100 µM
CSCCC(NC(=O)OCc1ccccc1)NC(=O)OCc1ccccc1    > 100 µM
CCOC(=O)C(C(=O)OCC)=C1NC2(c3ccccc3Nc3ccc(C)cc32)C(C(=O)OC)S1 (stereo not given)    > 100 µM

For each of the items listed, what is its TGI?
1. CC(Cc1ccccc1)NC1=NCCO1 (stereo not given)
2. C=CCn1cc(C(=O)NC(=O)NCCCCCOC(=O)CCCCCCCCCCC(=O)OCCCCCNC(=O)NC(=O)c2cn(CC=C)c(=O)n(C)c2=O)c(=O)n(C)c1=O
3. CC1(CC2=C(C(=O)NCCO[Si](C)(C)C(C)(C)C)C3(OCCO3)C2=O)OCCO1
4. CC1(C)CC2(C)CC1CC2NC(=O)CCN1CCOCC1 (stereo not given)
5. Clc1nc(Cl)c(CBr)c(Cl)n1
6. COc1ccc2c(c1)/C(=C/c1cc(OC)c(OC)c(OC)c1)C(=O)N2C
7. S=c1nc(N2CCCCC2)ss1
8. C1COCCOCCOCCOCCO1.CC(=O)[CH-]C(C)=O.CC(=O)[CH-]C(C)=O.CC(=O)[CH-]C(C)=O.[V]

a:
1: > 100 µM; 2: > 100 µM; 3: > 100 µM; 4: > 100 µM; 5: > 51.7 µM; 6: > 100 µM; 7: > 100 µM; 8: > 100 µM

Dear reader, for each entry below, please note its TGI.
1. NS(=O)(=O)c1nnc(NS(=O)(=O)c2ccccc2C(=O)O)s1
2. O=c1cc(N=Nc2ccc(Cl)cc2)[nH]c(=O)[nH]1
3. CS(=O)(=O)OCCN(CCOS(C)(=O)=O)c1ccc(C=O)cc1

a:
1: > 100 µM; 2: 20.4 µM; 3: 13.4 µM

Each compound below has a recorded value; state its TGI.
1. O=C(COc1cccc(/C=C2\CSc3ccccc3C2=O)c1)c1ccc(Cl)cc1
2. CCCCCCCCCCCCCCCCCCOCC(COP(=O)([O-])OCC[N+](C)(C)C)OC (stereo not given)
3. Nc1ncnc2c1cnn2Cc1ccc(Cl)cc1
4. COC1=C(Br)C(=O)C2=C(C1=O)C1C3=C(C(=O)C=CC3=O)C2c2ccccc21 (stereo not given)
5. COc1ccc(/C=C/NC=O)cc1
6. O=C1C(NCCN2CCOCC2)=C(Cl)C(=O)c2ncccc21
7. OCc1ccc(N(CCN2CCCC2)Cc2ccc(F)cc2)cc1Cl
8. CC(=O)O[C@H]1[C@@H](OC(C)=O)C(C)(C)/C=C/[C@H](C)C(=O)[C@@]2(OC(C)=O)C[C@@](C)(OC(C)=O)[C@H](OC(C)=O)[C@@H]2[C@H]2OC(=O)CC[C@@]2(OC(=O)c2ccccc2)[C@@H]1OCC(C)C

a:
1. 16 µM
2. 44.7 µM
3. > 100 µM
4. 46.4 µM
5. > 100 µM
6. 3.64 µM
7. 3.85 µM
8. > 100 µM

Go through the list and state TGI for each entry.
1. O=C1c2ccccc2-c2nc(/C=C/c3ccccc3)cc3c2c1nc1ccccc13
2. N#CC1CC2(C(=O)C1=O)c1ccccc1-c1ccccc12 (stereo not given)
3. CCC(C(=O)c1ccccc1)C(CCCC(=O)Nc1c(C)cccc1C)N=O (stereo not given)
4. O=C(Nc1cccc(-n2cc(-c3ccncc3)c(-c3ccc(O)c(Cl)c3)n2)c1)Nc1cccc(C(F)(F)F)c1
5. CCN(CC)C(=O)N1CN(c2ccccc2)C2(CCN(CCCSc3ccc(F)cc3)CC2)C1=O
6. C=CCN(c1cc(OC)c2[nH]cc(C)c2c1[N+](=O)[O-])S(C)(=O)=O
7. c1ccc(N=C2SC3=NCCN3C2=Nc2ccccc2)cc1

a:
1: > 100 µM; 2: > 100 µM; 3: > 100 µM; 4: 9.02 µM; 5: 44.4 µM; 6: > 100 µM; 7: 36.3 µM

q: Suppose we examine the compound COC(=O)c1cc(C(=CCC[C@H]2CC[C@@]3(C)C(CCC4C3CC[C@@]3(C)C4CC[C@@H]3C(C)CCCC(C)C)C2)c2cc(Cl)c(OC(=O)c3ccccc3)c(C(=O)OC)c2)cc(Cl)c1OC(=O)c1ccccc1 (stereo not given in full) ; what TGI value has been reported?
a: > 10 µM
